The measurements presented in this section are drawn from the supplement of paper PMC10567573.

Below, each entry is listed with its recorded protein stability index.
B1: ACSBG2 (parent)
chain: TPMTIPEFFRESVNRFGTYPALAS

Variants of: B1
Experiment: protein stability index of a GFP-peptide fusion (GPS, HEK-293T) (PSI 1-6); higher = more stable;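 also: lentivirally expressed fusions sorted by FACS into six bins by GFP to DsRed ratio, PSI derived from sequencing read proportions per bin multiplied by bin number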
Settings: c terminus: a fixed tail appended
QUANTITY: protein stability index

{"VARIANT LABEL": "E7L", "QUANTITY": "protein stability index", "QUANTITATIVE READOUT": 2.15}
{"VARIANT LABEL": "F8W", "QUANTITY": "protein stability index", "QUANTITATIVE READOUT": 2.09}
{"VARIANT LABEL": "T18N", "QUANTITY": "protein stability index", "QUANTITATIVE READOUT": 2.35}
{"VARIANT LABEL": "R15K", "QUANTITY": "protein stability index", "QUANTITATIVE READOUT": 2.1}
{"VARIANT LABEL": "L22C", "QUANTITY": "protein stability index", "QUANTITATIVE READOUT": 2.54}
{"VARIANT LABEL": "A21T", "QUANTITY": "protein stability index", "QUANTITATIVE READOUT": 2.02}
{"VARIANT LABEL": "F9A", "QUANTITY": "protein stability index", "QUANTITATIVE READOUT": 2.42}
{"VARIANT LABEL": "R10L", "QUANTITY": "protein stability index", "QUANTITATIVE READOUT": 1.45}
{"VARIANT LABEL": "T18H", "QUANTITY": "protein stability index", "QUANTITATIVE READOUT": 2.1}
{"VARIANT LABEL": "F9Q", "QUANTITY": "protein stability index", "QUANTITATIVE READOUT": 2.37}
{"VARIANT LABEL": "Y19T", "QUANTITY": "protein stability index", "QUANTITATIVE READOUT": 2.76}
{"VARIANT LABEL": "P20N", "QUANTITY": "protein stability index", "QUANTITATIVE READOUT": 2.11}
{"VARIANT LABEL": "F8E", "QUANTITY": "protein stability index", "QUANTITATIVE READOUT": 2.35}
{"VARIANT LABEL": "P2H", "QUANTITY": "protein stability index", "QUANTITATIVE READOUT": 2.29}
{"VARIANT LABEL": "F8S", "QUANTITY": "protein stability index", "QUANTITATIVE READOUT": 2.9}
{"VARIANT LABEL": "F8C", "QUANTITY": "protein stability index", "QUANTITATIVE READOUT": 2.7}
{"VARIANT LABEL": "P20H", "QUANTITY": "protein stability index", "QUANTITATIVE READOUT": 1.92}
{"VARIANT LABEL": "G17K", "QUANTITY": "protein stability index", "QUANTITATIVE READOUT": 2.27}
{"VARIANT LABEL": "Y19I", "QUANTITY": "protein stability index", "QUANTITATIVE READOUT": 2.78}
{"VARIANT LABEL": "A23G", "QUANTITY": "protein stability index", "QUANTITATIVE READOUT": 2.2}
{"VARIANT LABEL": "P2K", "QUANTITY": "protein stability index", "QUANTITATIVE READOUT": 2.01}
{"VARIANT LABEL": "F9T", "QUANTITY": "protein stability index", "QUANTITATIVE READOUT": 3.4}
